The reader will find reported pEC50 values listed item by item below.
Target: T1, cynomolgus monkey CD96v2 expressed on cells (CHO cells; transiently transfected HEK cells) (cynomolgus monkey, UniProt A0A2K5TWV6 22-569)
T1 construct: the cell is named under assay; also called CHO-cyCD96; Cyno CD96v2
T1 sequence: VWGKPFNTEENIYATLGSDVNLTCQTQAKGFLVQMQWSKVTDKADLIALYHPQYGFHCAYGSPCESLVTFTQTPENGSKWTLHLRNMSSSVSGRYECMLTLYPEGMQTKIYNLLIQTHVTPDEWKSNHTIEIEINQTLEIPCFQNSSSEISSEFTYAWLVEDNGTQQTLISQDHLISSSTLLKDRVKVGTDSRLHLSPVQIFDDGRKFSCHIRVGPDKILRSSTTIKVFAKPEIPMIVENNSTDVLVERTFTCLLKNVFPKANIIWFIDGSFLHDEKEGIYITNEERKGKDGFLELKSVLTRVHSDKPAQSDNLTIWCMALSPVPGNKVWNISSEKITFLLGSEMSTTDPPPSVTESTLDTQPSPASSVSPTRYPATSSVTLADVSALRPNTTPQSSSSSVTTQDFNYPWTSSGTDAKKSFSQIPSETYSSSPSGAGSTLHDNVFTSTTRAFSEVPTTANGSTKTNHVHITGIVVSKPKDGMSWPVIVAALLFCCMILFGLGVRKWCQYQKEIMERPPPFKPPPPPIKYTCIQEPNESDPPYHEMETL
Assay: flow cytometry on CHO cells expressing cynomolgus CD96v2
// pEC50 here means minus log10 of the molar concentration (mol/L)

// solved cases for pEC50 follow
- BINDER: "42Y073-86F08-17 (antibody, V domains shown, Fully human antibody; also called 42Y073-88F08-17) VH: QVQLVQSGAEVKKPGSSVKVSCKASGGTFREYAISWVRQAPGQGLEWMGGIIPVFGTANYAQKFQGRVTITADESTSTAYMELSSLRSEDTAVYYCARGAGYYGDKDPMDVWGQGTTVTVSS VL: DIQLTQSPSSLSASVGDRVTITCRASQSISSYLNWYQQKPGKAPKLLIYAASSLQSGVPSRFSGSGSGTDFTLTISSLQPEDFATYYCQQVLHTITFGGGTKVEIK"
  pEC50: 10.52
- BINDER: "42Y073-1A01-191 (antibody, V domains shown, Fully human antibody) VH: QVQLVQSGAEVKKPGASVKVSCKASGYTFTKYRMHWVRQAPGQGLEWMGIINPQGGSTSYAQKFQGRVTMTRDTSTSTVYMELSSLRSEDTAVYYCARETAYYTTKGNWFDPWGQGTLVTVSA VL: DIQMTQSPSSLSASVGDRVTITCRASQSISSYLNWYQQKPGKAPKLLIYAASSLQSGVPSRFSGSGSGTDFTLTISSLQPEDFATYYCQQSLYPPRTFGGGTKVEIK"
  pEC50: 10.70
- BINDER: "42Y073-86F04-18 (antibody, V domains shown, Fully human antibody) VH: QVQLVQSGAEVKKPGSSVKVSCKASGGTFSSRAISWVRQAPGQGLEWMGGIIPIMGTARYAQKFQGRVTITADESTSTAYMELSSLRSEDTAVYYCARLLGESGMDVWGQGTTVTVSS VL: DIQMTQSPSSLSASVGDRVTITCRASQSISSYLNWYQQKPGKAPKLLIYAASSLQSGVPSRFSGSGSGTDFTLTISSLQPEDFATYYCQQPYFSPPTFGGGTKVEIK"
  pEC50: 9.96

Q: pEC50 lookup needed for 42Y073-86F08-4 (antibody, V domains shown, Fully human antibody) VH: QVQLVQSGAEVKKPGSSVKVSCKASGGTFSEYAIHWVRQAPGQGLEWMGNIIPIFGTAGYAQKFQGRVTITADESTSTAYMELSSLRSEDTAVYYCARGAGYYGDKDPMDVWGQGTTVTVSS VL: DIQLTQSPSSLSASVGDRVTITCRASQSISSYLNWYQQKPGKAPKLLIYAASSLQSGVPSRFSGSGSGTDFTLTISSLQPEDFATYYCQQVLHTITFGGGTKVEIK , thanks.
Result: 10.15
